- assay_system: T1, Human BCMA (human, UniProt Q02223 1-54, limits assumed)
- T1 construct: also called huBCMA; B-cell maturation antigen
- T1 sequence (looked up): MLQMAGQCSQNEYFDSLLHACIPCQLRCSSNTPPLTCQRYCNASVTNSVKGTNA
- method: SPR, IgG immobilised, human BCMA analyte
reported_metric: koff (s⁻¹)
Give bare numbers, in s⁻¹.

C01_Rd4_0.6nM_C09 (antibody, V domains shown, IgG) VH: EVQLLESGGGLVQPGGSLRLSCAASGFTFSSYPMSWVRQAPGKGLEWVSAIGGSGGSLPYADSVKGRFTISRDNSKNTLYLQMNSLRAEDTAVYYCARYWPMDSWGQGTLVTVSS VL: EIVLTQSPGTLSLSPGERATLSCRASQSVSSLFLAWYQQKPGQAPRLLIYDASSRAPGIPDRFSGSGSGTDFTLTISRLEPEDFAVYYCQQYSAWPLTFGQGTKVEIK ... 0.00825
A02_Rd4_6nM_C04 (antibody, V domains shown, IgG) VH: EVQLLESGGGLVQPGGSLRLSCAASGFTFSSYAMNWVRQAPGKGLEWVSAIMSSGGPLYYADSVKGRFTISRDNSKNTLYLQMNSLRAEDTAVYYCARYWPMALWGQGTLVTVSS VL: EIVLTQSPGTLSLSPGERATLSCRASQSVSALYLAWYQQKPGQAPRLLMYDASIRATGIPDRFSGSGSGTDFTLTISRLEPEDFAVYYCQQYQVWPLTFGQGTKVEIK ... 0.000603
COMBO_Rd4_0.6nM_C23 (antibody, V domains shown, IgG) VH: EVQLLESGGGLVQPGGSLRLSCAASGFTFSSYPMSWVRQAPGKGLEWVSALFGSGGSTYYADSVKGRFTISRDNSKNTLYLQMNSLRAEDTAVYYCARYWPMDSWGQGTLVTVSS VL: EIVLTQSPGTLSLSPGERATLSCRPRQSVSSSYLAWYQQKPGQAPRLLMYDASIRATGIPDRFSGSGSGTDFTLTISRLEPEDFAVYYCQQYQDWPLTFGQGTKVEIK ... 0.00021
C01_Rd4_6nM_C04 (antibody, V domains shown, IgG) VH: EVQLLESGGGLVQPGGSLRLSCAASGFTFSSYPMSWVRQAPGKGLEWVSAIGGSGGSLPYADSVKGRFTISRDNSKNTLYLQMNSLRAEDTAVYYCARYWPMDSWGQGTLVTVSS VL: EIVLTQSPGTLSLSPGERATLSCCSSQSVSSTYLAWYQQKPGQAPRLLIYDASSRAPGIPDRFSGSGSGTDFTLTISRLEPEDFAVYYCQQYSAFPLTFGQGTKVEIK ... 0.0497

Form field koff, entry A02_Rd4_6nM_C16 (antibody, V domains shown, IgG; also called P5AC16) VH: EVQLLESGGGLVQPGGSLRLSCAASGFTFSSYAMNWVRQAPGKGLEWVSAISDFGGSTYYADSVKGRFTISRDNSKNTLYLQMNSLRAEDTAVYYCARYWPMDIWGQGTLVTVSS VL: EIVLTQSPGTLSLSPGERATLSCRASQSVSDLYLAWYQQKPGQAPRLLMYDASIRATGIPDRFSGSGSGTDFTLTISRLEPEDFAVYYCQQYQTWPLTFGQGTKVEIK : 0.000141
